The measured values listed here are drawn from ChEMBL document CHEMBL1201861.

Test system: LC-1F;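 note: growth inhibition of human LC-1F cells, read out with a cell viability assay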
Measurement Notes: cells
Format: functional, cell-based, Homo sapiens
Experimental Parameters: Homo sapiens, LC-1F
Description: SANGER: Inhibition of human LC-1F cell growth in a cell viability assay.

Compound | IC50
Nc1ccccc1NC(=O)c1ccc(CNC(=O)OCc2cccnc2)cc1 [ENTINOSTAT] | 1120 nM
Cc1ccc(C(=O)Nc2ccc(CN3CCN(C)CC3)c(C(F)(F)F)c2)cc1C#Cc1cnc2cccnn12 [PONATINIB] | > 512 nM
OC[C@H](Cc1ccccc1)Nc1nc(Oc2ccc3c(c2)CCC3)nc2c1ncn2Cc1ccc(-c2ccccc2)cc1 | > 10200 nM
COC(=O)[C@H](CCSC)NC(=O)c1ccc(NC[C@@H](N)CS)cc1-c1ccccc1 | > 1020 nM
C=CC(=O)N1CCCC(Nc2nc(Nc3ccc(N(C)C(=O)CC)cc3)nc3[nH]cnc23)C1 (stereo not given) | > 10200 nM

---

Below is a list of entries, each paired with its recorded pIC50 value.
System: SK-UT-1;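 note: growth inhibition of SK-UT-1 cells, measured by a cell viability assay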
Measurement Notes: cells
Type: functional, cell-based, Homo sapiens
Experimental Parameters: Homo sapiens, SK-UT-1
Description: SANGER: Inhibition of human SK-UT-1 cell growth in a cell viability assay.
pIC50: −log10 of the molar value.

Molecule | Sign Qualifier | pIC50
O=C1NC(=O)c2c1c(-c1ccccc1Cl)cc1[nH]c3ccc(O)cc3c21 | < | 5.70
Cc1ccc(-n2nc(C(C)(C)C)cc2NC(=O)Nc2ccc(OCCN3CCOCC3)c3ccccc23)cc1 | < | 5.00
CN(NC(=O)CC(=O)NN(C)C(=S)c1ccccc1)C(=S)c1ccccc1 | = | 7.85
OC[C@H](Cc1ccccc1)Nc1nc(Oc2ccc3c(c2)CCC3)nc2c1ncn2Cc1ccc(-c2ccccc2)cc1 | < | 4.99
COc1ccc(-c2cc3nccn3c(Nc3ncccc3C(N)=O)n2)cc1OC | = | 5.20
C=CC(=O)N1CCCC(Nc2nc(Nc3ccc(N(C)C(=O)CC)cc3)nc3[nH]cnc23)C1 (centres undefined) | < | 4.99
NC(=O)Nc1cc(-c2cccc(F)c2)sc1C(=O)N[C@H]1CCCNC1 | = | 6.73
C[C@@H](Oc1cc(-c2cnn(C3CCNCC3)c2)cnc1N)c1c(Cl)ccc(F)c1Cl | < | 5.70
O=C(NCCCNc1nc(Nc2cccc(NC(=O)N3CCCC3)c2)ncc1I)c1cccs1 | = | 5.64

---

Tested on: NB5;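 note: growth inhibition of NB5 cells, read out as cell viability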
Measurement Notes: cells
Assay type: functional, cell-based, Homo sapiens
Experimental Parameters: Homo sapiens, NB5
Description: SANGER: Inhibition of human NB5 cell growth in a cell viability assay.
Below is a list of entries, each paired with its recorded IC50 value.

Smiles Str | Sign Qualifier | IC50 (nM)
CC1=C(/C=C/C(C)=C/C=C/C(C)=C/C(=O)O)C(C)(C)CCC1 | > | 10000
CC1(C)CCC(c2ccc(Cl)cc2)=C(CN2CCN(c3ccc(C(=O)NS(=O)(=O)c4ccc(N[C@H](CCN5CCOCC5)CSc5ccccc5)c(S(=O)(=O)C(F)(F)F)c4)cc3)CC2)C1 | > | 2000
CN(NC(=O)CC(=O)NN(C)C(=S)c1ccccc1)C(=S)c1ccccc1 | = | 30.7
COc1cc(N2CCC(N3CCN(C)CC3)CC2)ccc1Nc1ncc(Cl)c(Nc2ccccc2S(=O)(=O)C(C)C)n1 | = | 1580

---

Below is a list of entries, each paired with its recorded IC50 value.
System: NB10;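 note: growth inhibition of NB10 cells, read out by a cell viability assay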
Measurement Notes: cells
Assay type: functional, cell-based, Homo sapiens
Experimental Parameters: Homo sapiens, NB10
Description: SANGER: Inhibition of human NB10 cell growth in a cell viability assay.

Compound | Target | IC50
Cc1ccc(-n2nc(C(C)(C)C)cc2NC(=O)Nc2ccc(OCCN3CCOCC3)c3ccccc23)cc1 [DORAMAPIMOD] | NB10 | > 10000 nM
COc1cc(N2CCC(N3CCN(C)CC3)CC2)ccc1Nc1ncc(Cl)c(Nc2ccccc2S(=O)(=O)C(C)C)n1 [TAE-684] | NB10 | 1570 nM
COC(=O)[C@H](CCSC)NC(=O)c1ccc(NC[C@@H](N)CS)cc1-c1ccccc1 | NB10 | > 1020 nM
CN(C)CCOc1ccc(-c2nc(-c3ccncc3)c(-c3ccc4c(c3)CC/C4=N\O)[nH]2)cc1 [SB590885] | NB10 | > 5000 nM
Cc1ccc(C(=O)Nc2ccc(CN3CCN(C)CC3)c(C(F)(F)F)c2)cc1C#Cc1cnc2cccnn12 [PONATINIB] | NB10 | > 512 nM
NC1(c2ccc(-c3nc4ccn5c(=O)[nH]nc5c4cc3-c3ccccc3)cc2)CCC1 [MK-2206] | NB10 | > 4000 nM
OC[C@H](Cc1ccccc1)Nc1nc(Oc2ccc3c(c2)CCC3)nc2c1ncn2Cc1ccc(-c2ccccc2)cc1 | NB10 | > 10200 nM
Nc1ccccc1NC(=O)c1ccc(CNC(=O)OCc2cccnc2)cc1 [ENTINOSTAT] | NB10 | 2410 nM
